tested on: transient receptor potential cation channel C4 beta (TRPC4), mouse; assay: activators of mouse TRPC4 channel, confirmation, cell-based, second round, Fluo4, HEK293 TRPC4beta/mu-opioid, 1 µM (AID 2461); settings: Fluo4 calcium fluorescence, at 1 µM
The source made the active and inactive calls.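 Rule for the calls: active = primary screen active and over 50% activation in each of two duplicate runs; inactive = the rest.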
Thanks in advance; please answer with one of these: TRUE for active, FALSE for inactive

# count of solved cases: 2
> print(dat)
                                   compound  label
1  Cc1ccc(S(=O)(=O)Nc2cccc(C(=O)NCC(c3ccco3)N3CCCC3)c2)cc1F (configuration not stated)  FALSE
2  CCc1nc(NCCc2ccccn2)c2nnn(Cc3ccccc3F)c2n1  FALSE

What is the recorded call for this compound in the test? `CN(C)CCN(C(=O)c1cccc2ccccc12)c1nc2cc3c(cc2s1)OCO3` FALSE

Please answer likewise for `Cc1onc(-c2ccccc2)c1C(=O)NNC(=S)NC(=O)c1ccc(Cl)cc1Cl` TRUE

Please answer likewise for `CCN1CCN(c2c(Cl)cccc2NC(=O)c2ccc3nsnc3c2)CC1` FALSE

Please answer likewise for `CCN(CC)CCSc1nc2ccc(OC)cc2[nH]1` TRUE

Please answer likewise for `C=CCn1c(CCNC(=O)c2ccco2)nc2ccccc21` TRUE

Please answer likewise for `O=C(COc1ccccc1)NNC(=S)NC(=O)c1ccc(Cl)cc1Cl` FALSE

###

molecular target: Potassium voltage-gated channel subfamily KQT member 2 (Rattus norvegicus) (UniProt O88943); experiment: rat KCNQ2 channel potentiation, selectivity assay for KCNQ1 potentiator project, KCNQ2-CHO-K1 cells (AID 493009); conditions: FluxOR thallium flux fluorescence, at 10 µM, scaled: buffer 0, activator control 100;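 note: assay conditions were tuned for KCNQ1 rather than KCNQ2 modulators; signal is max minus min fluorescence divided by baseline after thallium stimulus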
Sequence (O88943 whole entry, looked up): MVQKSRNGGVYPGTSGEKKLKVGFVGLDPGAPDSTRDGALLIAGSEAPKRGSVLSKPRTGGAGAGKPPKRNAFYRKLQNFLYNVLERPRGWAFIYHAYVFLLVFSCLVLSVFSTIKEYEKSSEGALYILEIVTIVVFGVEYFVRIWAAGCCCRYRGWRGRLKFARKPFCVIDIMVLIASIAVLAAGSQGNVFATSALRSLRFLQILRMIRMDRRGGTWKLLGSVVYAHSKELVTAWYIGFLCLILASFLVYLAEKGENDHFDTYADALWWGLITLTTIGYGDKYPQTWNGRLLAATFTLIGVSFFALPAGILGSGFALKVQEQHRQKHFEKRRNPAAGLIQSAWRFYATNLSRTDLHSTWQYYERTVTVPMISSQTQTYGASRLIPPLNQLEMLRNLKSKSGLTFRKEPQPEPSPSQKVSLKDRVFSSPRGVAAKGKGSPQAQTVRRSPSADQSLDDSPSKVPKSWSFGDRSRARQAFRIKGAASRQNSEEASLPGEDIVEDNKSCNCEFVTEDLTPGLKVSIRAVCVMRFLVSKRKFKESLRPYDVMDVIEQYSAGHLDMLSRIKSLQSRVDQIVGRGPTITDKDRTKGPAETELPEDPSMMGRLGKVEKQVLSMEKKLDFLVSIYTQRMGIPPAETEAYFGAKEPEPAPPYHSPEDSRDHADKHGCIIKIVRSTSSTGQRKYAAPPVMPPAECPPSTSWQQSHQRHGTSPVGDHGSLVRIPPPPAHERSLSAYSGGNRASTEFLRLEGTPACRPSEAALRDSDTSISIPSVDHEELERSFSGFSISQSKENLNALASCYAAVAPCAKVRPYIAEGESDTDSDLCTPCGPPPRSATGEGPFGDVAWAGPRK
Active and inactive are the calls of the source.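 The calls were made as follows: active = mean duplicate potentiation above the buffer control mean plus 5 SD of buffer wells; inactive = the rest.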
Thanks in advance; please answer with one of these: true = active, false = inactive

# count of solved cases: 8
> print(dat)
                                   molecule  label
1           O=C(CC(=O)c1ccccc1O)c1cccc(F)c1   true
2  COc1ccccc1C(=O)NNC(=S)NC(=O)c1sc2ccccc2c1Cl   true
3      CCCc1cc2c(=O)c(-c3ccccn3)c(C)oc2cc1O  false
4      O=C(CSc1cccc[n+]1[O-])c1cc(Cl)ccc1Cl  false
5  CCOC(=O)CSc1nc2ccccc2c(=O)n1-c1ccc(C)cn1  false
6  Cc1nc2c(c3c1[nH]c1ccccc13)C(=O)CC(C)(C)C2  false
7  COc1ccccc1C(=O)NNC(=O)c1nn(Cc2ccccc2)c(=O)c2ccccc12  false
8            O=C(NCCCn1ccnc1)c1cc(C2CC2)on1  false

What is the recorded call for this molecule in the test? `O=C(NNc1nc2c(F)cc(F)cc2s1)c1ccccc1` false

Please answer likewise for `Cc1cc(C)c2nc(NC(=O)c3cc(C)on3)sc2c1` true

Please answer likewise for `O=C(CN(CCO)c1ccccc1)Nc1cccc(S(=O)(=O)N2CCCC2)c1` false

Please answer likewise for CCC1(c2ccccc2)NC(=S)N(c2ccc(C)cc2)N1 (centres undefined) true

Please answer likewise for `COC(=O)c1c(NS(=O)(=O)c2ccc3ccccc3c2)sc2c1CCCC2` true

Please answer likewise for COc1ccc(C2NC(c3ccc(OC)c(OC)c3OC)C(C)C(=O)C2C)c(OC)c1OC (centres undefined) false

Please answer likewise for CNc1ccccc1C(=O)OC(C)C(=O)Nc1ccc(Cl)cn1 (centres undefined) false

Please answer likewise for `O=c1[nH]c(C(Cl)(Cl)Cl)nc2ccc3ccccc3c12` true

Please answer likewise for `Cc1ccc(S(=O)(=O)N(C)c2nc3ccccc3[nH]c2=S)cc1` true

Please answer likewise for `COc1cccc(C=O)c1OCCCOc1cccc2cccnc12` false

Please answer likewise for CN1C(=O)CC(N2CCN(CC(=O)N3CCCC3)CC2)C1=O (centres undefined) false

Please answer likewise for `CCOC(=O)c1cc2c(=O)n3ccccc3nc2n(CCCOC)c1=NC(=O)c1ccncc1` false

Please answer likewise for `N#CC1=C(Nc2ccccc2)SC=C(c2ccc(Br)cc2)N=C1N1CCOCC1` false

Please answer likewise for `NC(=Nc1ccccc1)Nc1ccccc1` false

Please answer likewise for COc1ccccc1-c1nc(C#N)c(N2CC(C)CC(C)C2)o1 (centres undefined) false

Please answer likewise for `Cc1nonc1NC(=O)OC1CCCCC1` false

###

target: Potassium voltage-gated channel subfamily KQT member 2 (Rattus norvegicus) (UniProt O88943); experiment: rat KCNQ2 channel potentiation, selectivity assay for KCNQ1 potentiator project, KCNQ2-CHO-K1 cells (AID 493009); settings: FluxOR thallium flux fluorescence, at 10 µM, scaled: buffer 0, activator control 100;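 note: assay conditions were tuned for KCNQ1 rather than KCNQ2 modulators; signal is max minus min fluorescence divided by baseline after thallium stimulus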
Calls of active or inactive are those of the source.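 The calls were made as follows: active = mean duplicate potentiation above the buffer control mean plus 5 SD of buffer wells; inactive = the rest.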
Thanks in advance; please answer with one of these: 1 = active, 0 = inactive

# count of solved cases: 4
> print(dat)
                                   molecule  label
1  COc1cccc(N(C(=O)Cn2nnc(-c3ccc(C)o3)n2)C(C(=O)NC2CCCC2)c2ccncc2)c1 (stereo not given)      0
2  CC1CCN(C(=S)NC(=O)c2cccc([N+](=O)[O-])c2)CC1      1
3      Oc1c(Br)cc(Br)cc1C=Nc1ccc2c(c1)OCCO2      0
4  Cc1ccc(CN2C(=O)CC(Nc3ccc(N4CCOCC4)cc3)C2=O)cc1 (stereo not given)      0

Query molecule follows.
What is the recorded call for this molecule in the test? `c1csc(-c2csc3ncnc(NCCCN4CCOCC4)c23)c1` 0

###

molecular target: Potassium voltage-gated channel subfamily KQT member 1 (Homo sapiens) (UniProt P51787); assay: KCNQ1 potassium channel potentiators, confirmation, FluxOR thallium flux, CHO cells, duplicates (AID 493007); details: KCNQ1 cell line, FluxOR thallium flux fluorescence, at 10 µM, % of reference activator effect, buffer zero
Sequence (P51787 whole entry, looked up): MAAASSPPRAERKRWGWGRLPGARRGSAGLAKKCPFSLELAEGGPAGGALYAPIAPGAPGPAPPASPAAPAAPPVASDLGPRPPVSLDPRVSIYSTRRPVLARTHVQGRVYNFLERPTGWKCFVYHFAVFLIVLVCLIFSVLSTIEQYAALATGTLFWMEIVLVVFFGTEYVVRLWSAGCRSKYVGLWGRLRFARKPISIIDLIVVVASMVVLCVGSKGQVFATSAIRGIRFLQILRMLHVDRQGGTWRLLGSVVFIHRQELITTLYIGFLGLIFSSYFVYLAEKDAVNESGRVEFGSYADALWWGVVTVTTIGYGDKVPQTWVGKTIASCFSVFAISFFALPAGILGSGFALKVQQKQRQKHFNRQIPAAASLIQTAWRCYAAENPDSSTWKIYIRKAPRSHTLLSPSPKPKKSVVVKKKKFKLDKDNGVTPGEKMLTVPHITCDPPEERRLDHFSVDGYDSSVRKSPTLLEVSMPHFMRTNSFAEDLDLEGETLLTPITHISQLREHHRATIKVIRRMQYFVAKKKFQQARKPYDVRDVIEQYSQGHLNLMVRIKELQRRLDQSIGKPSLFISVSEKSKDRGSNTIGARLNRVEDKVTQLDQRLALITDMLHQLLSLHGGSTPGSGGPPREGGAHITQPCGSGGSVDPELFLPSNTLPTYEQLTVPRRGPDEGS
Active and inactive are the calls of the source.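 How the source made its calls: active means potentiation averaged over duplicate wells exceeding buffer-only control mean by more than 3 SD; inactive means the rest.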
Thanks in advance; please answer with one of these: 1 (yes) for active, 0 (no) for inactive

> print(dat)
                                   molecule                               target.desc    label
1  CC(=O)N[C@H]1[C@H](OC2CCCCC2)O[C@H](COC(C)=O)[C@@H](OC(C)=O)[C@@H]1OC(C)=O  Potassium voltage-gated channel subfamily KQT member 1 (Homo sapiens) (UniProt P51787)   0 (no)
2  N#C/C(=C/c1cn(-c2ccccc2)nc1-c1cccc(S(=O)(=O)N2CCOCC2)c1)C(=O)NCc1ccco1  Potassium voltage-gated channel subfamily KQT member 1 (Homo sapiens) (UniProt P51787)   0 (no)
3        N#Cc1ccc2ccn(CC(=O)NCc3ccccc3)c2c1  Potassium voltage-gated channel subfamily KQT member 1 (Homo sapiens) (UniProt P51787)   0 (no)
4   Cc1ccc(Cl)cc1NC(=S)N/N=C/c1cccc2ccccc12  Potassium voltage-gated channel subfamily KQT member 1 (Homo sapiens) (UniProt P51787)  1 (yes)
5  CCCS(=O)(=O)c1c(S(=O)(=O)CCC)c2c(C(N)=O)cccn2c1C(=O)c1ccc(F)cc1  Potassium voltage-gated channel subfamily KQT member 1 (Homo sapiens) (UniProt P51787)   0 (no)

What is the recorded call for this molecule in the test? `CCN(CC)C(=S)SCC(=O)Nc1nc(=O)c2ccccc2s1` 0 (no)

Please answer likewise for `CCCOc1ccc(C(=O)NNC(=S)NC(=O)c2cc(-c3ccccc3)nc3ccccc23)cc1` 1 (yes)

Please answer likewise for COc1ccc(C(=O)N2CCC(n3nccc3NC(=O)C3CCOC3)CC2)cc1 (stereo not given) 0 (no)

Please answer likewise for `O=C(NC(=S)Nc1ccccc1N1CCOCC1)c1sc2ccccc2c1Cl` 1 (yes)

Please answer likewise for CC(C)Cc1ccc(C(C)C(=O)Nc2ccc(O)cc2)cc1 (stereo not given) 0 (no)

###

target: Potassium voltage-gated channel subfamily KQT member 2 (Rattus norvegicus); experiment: rat KCNQ2 channel potentiation, selectivity assay for KCNQ1 potentiator project, KCNQ2-CHO-K1 cells (AID 493009); settings: FluxOR thallium flux fluorescence, at 10 µM, scaled: buffer 0, activator control 100;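 note: assay conditions were tuned for KCNQ1 rather than KCNQ2 modulators; signal is max minus min fluorescence divided by baseline after thallium stimulus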
Activity calls are given as the source filed them.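 The calls were made as follows: active = mean duplicate potentiation above the buffer control mean plus 5 SD of buffer wells; inactive = the rest.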
Thanks in advance; please answer with one of these: 1 (yes) = active, 0 (no) = inactive

> print(dat)
                                   compound    label
1  CC1Cc2ccccc2N1C(=S)NC(=O)c1cccc(Br)c1 (stereo unspecified)  1 (yes)

What is the recorded call for this compound in the test? `O=C(COc1ncnc2ccc(Br)cc12)Nc1ccc(N2CCOCC2)cc1` 0 (no)

Please answer likewise for CC(NC(=O)c1ccncc1)C(C)(C)C (stereo unspecified) 0 (no)

Please answer likewise for `COc1cc(NS(=O)(=O)c2ccc(NC(=S)NC(=O)c3sc4cc(F)ccc4c3Cl)cc2)nc(OC)n1` 0 (no)

###

biological target: Potassium voltage-gated channel subfamily KQT member 2 (Rattus norvegicus); assay: rat KCNQ2 channel potentiation, selectivity assay for KCNQ1 potentiator project, KCNQ2-CHO-K1 cells (AID 493009); conditions: FluxOR thallium flux fluorescence, at 10 µM, scaled: buffer 0, activator control 100;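 note: assay conditions were tuned for KCNQ1 rather than KCNQ2 modulators; signal is max minus min fluorescence divided by baseline after thallium stimulus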
Activity calls are given as the source filed them.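 Rule for the calls: active = mean duplicate potentiation above the buffer control mean plus 5 SD of buffer wells; inactive = the rest.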
Thanks in advance; please answer with one of these: true (1) = active, false (0) = inactive

# count of solved cases: 6
> print(dat)
                                   compound                               target.desc      label
1   Cc1cccc(OCC(=O)O/N=C(\N)c2ccc(Cl)cc2)c1  Potassium voltage-gated channel subfamily KQT member 2 (Rattus norvegicus)  false (0)
2  COc1ccc(-c2cc3nc(C)c(CCC(=O)NC(C)CCc4ccco4)c(C)n3n2)c(OC)c1 (stereo unspecified)  Potassium voltage-gated channel subfamily KQT member 2 (Rattus norvegicus)  false (0)
3  Cc1nn(Cc2ccc(Cl)cc2)c(C)c1NC(=O)c1cc(-c2ccco2)on1  Potassium voltage-gated channel subfamily KQT member 2 (Rattus norvegicus)  false (0)
4         O=c1cc(-c2ccccc2)cc(-c2ccccc2)n1O  Potassium voltage-gated channel subfamily KQT member 2 (Rattus norvegicus)   true (1)
5  COc1ccc(C(=O)NC(=S)NNC(=O)c2ccc(C)cc2)cc1  Potassium voltage-gated channel subfamily KQT member 2 (Rattus norvegicus)   true (1)
6  COc1cccc2sc(NNC(=O)C3COc4ccccc4O3)nc12 (stereo unspecified)  Potassium voltage-gated channel subfamily KQT member 2 (Rattus norvegicus)  false (0)

What is the recorded call for this compound in the test? `COc1ccccc1C(=O)NNC(=O)C(=O)NC(C)C` false (0)

Please answer likewise for `COc1ccc(NC(=O)/C(=C/c2ccc(OC(C)=O)c(OC)c2)NC(C)=O)cc1` false (0)

Please answer likewise for `CN1C(=O)/C(=N\OC(=O)c2cccc3ccccc23)c2ccccc21` false (0)

Please answer likewise for `CCN(Cc1ccccc1)C1CCN(Cc2ccccc2)CC1` false (0)

Please answer likewise for `O=c1c2ccc(Cl)cc2[nH]c(=S)n1CCC1=CCCCC1` true (1)
